test system: SW780; test: Cell proliferation inhibition, WST-8, four days (Example 3); assay type: cell-based; details: Homo sapiens, SW780, 96 h, fusion polypeptide expressing
ASSAY_METRIC: log10 IC50 (log10 of the value in nM)
Note the log scale: values are log10 of IC50 expressed in nM.

Examples from the recorded data:
| SMILES_TEXT | ASSAY_METRIC | OBSERVED_MEASUREMENT |
| --- | --- | --- |
| COc1cc(CCc2cc(NC(=O)c3ccc(N4C[C@@H](C)N[C@@H](C)C4)cc3)[nH]n2)cc(OC)c1 | log10 IC50 | 2.20 |
| Cc1nc2ccc(-n3ncc(C(=O)c4cc5ccccc5[nH]4)c3N)cc2[nH]1 | log10 IC50 | 2.08 |
| CN1CCN(c2ccc3nc(-c4c(N)c5c(F)cccc5[nH]c4=O)[nH]c3c2)CC1 | log10 IC50 | 2.76 |
| COc1cc2c(Oc3ccc4[nH]c(C)cc4c3F)ncnc2cc1OCCCN1CCCC1 | log10 IC50 | 2.72 |
| CCN1CCN(c2ccc(Nc3cc(N(C)C(=O)Nc4c(Cl)c(OC)cc(OC)c4Cl)ncn3)cc2)CC1 | log10 IC50 | 3.04 |

--- query ---
Item: CCN(CC)CCCCNc1ncc2cc(-c3cc(OC)cc(OC)c3)c(NC(=O)NC(C)(C)C)nc2n1 | log10 IC50: 1.84

###

test system: RT4; assay: Cell proliferation inhibition, WST-8, four days (Example 3); type: cell-based; conditions: Homo sapiens, RT-4, 96 h, fusion polypeptide expressing
Rule for this label: true means IC50 is less than 200 nM; false means IC50 is at least 200 nM.

Examples with answers:
| SMILES_TEXT | SYSTEM_TESTED | GROUP_LABEL |
| --- | --- | --- |
| CCN(CC)CCCCNc1ncc2cc(-c3cc(OC)cc(OC)c3)c(NC(=O)NC(C)(C)C)nc2n1 | RT4 | true |
| COc1cc2c(Oc3ccc4[nH]c(C)cc4c3F)ncnc2cc1OCCCN1CCCC1 | RT4 | false |
| CCN1CCN(c2ccc(Nc3cc(N(C)C(=O)Nc4c(Cl)c(OC)cc(OC)c4Cl)ncn3)cc2)CC1 | RT4 | false |
| COc1cc(CCc2cc(NC(=O)c3ccc(N4C[C@@H](C)N[C@@H](C)C4)cc3)[nH]n2)cc(OC)c1 | RT4 | false |

### Prompt Record Cc1nc2ccc(-n3ncc(C(=O)c4cc5ccccc5[nH]4)c3N)cc2[nH]1 : is its IC50 strictly below 200 nM?
### Response false

### Prompt Report whether reported IC50 is lower than 200 nM (strictly) for CN1CCN(c2ccc3nc(-c4c(N)c5c(F)cccc5[nH]c4=O)[nH]c3c2)CC1
### Response false

###

Test system: UM-UC-14
Test: Cell proliferation inhibition, WST-8, four days (Example 3)
Format: cell-based
Settings: Homo sapiens, UMUC14, 96 h, mutated type FGFR, no fusion
Experimental: IC50 was calculated using the least-square method.
ASSAY_METRIC: pIC50
Interpret pIC50 as the negative base-10 log of the concentration measured in mol/L.

Consider the following illustrative entries.
| SMILES_TEXT | pIC50 |
| --- | --- |
| CCN1CCN(c2ccc(Nc3cc(N(C)C(=O)Nc4c(Cl)c(OC)cc(OC)c4Cl)ncn3)cc2)CC1 | 7.77 |
| COc1cc2c(Oc3ccc4[nH]c(C)cc4c3F)ncnc2cc1OCCCN1CCCC1 | 7.18 |
| CCN(CC)CCCCNc1ncc2cc(-c3cc(OC)cc(OC)c3)c(NC(=O)NC(C)(C)C)nc2n1 | 8.00 |
| CN1CCN(c2ccc3nc(-c4c(N)c5c(F)cccc5[nH]c4=O)[nH]c3c2)CC1 | 7.12 |

Param item: Cc1nc2ccc(-n3ncc(C(=O)c4cc5ccccc5[nH]4)c3N)cc2[nH]1 ; param system: UM-UC-14; output pIC50: 6.96

I looked up COc1cc(CCc2cc(NC(=O)c3ccc(N4C[C@@H](C)N[C@@H](C)C4)cc3)[nH]n2)cc(OC)c1 and its pIC50 for UM-UC-14 was 7.80
